Just for reference, patent US20240067660A1 is where these values come from.

Target: Myeloid Cell Leukemia 1(Mcl-1) (Homo sapiens (Human))
Assay: Terbium labeled Mcl-1 HTRF binding assay with Cy5-labeled BIM BH3 peptide
Conditions: obtained after recalibration of the equipment; averaged values over several runs
Excerpt: Terbium labeled Myeloid Cell Leukemia 1(Mcl-1) homogeneous time-resolved fluorescence (HTRF) binding assay utilizing the BIM BH3 peptide (H2N-(C/Cy5Mal) WIAQELRRIGDEFN-OH) as the binding partner for Mcl-1. This assay evaluated inhibition of the BH3 domain: Mcl-1 interaction by measuring the displacement of Cy5-labeled BIM BH3 peptide (H2N—(C/Cy5Mal) WIAQELRRIGDEFN-OH) in the HTRF assay format. […]
pKi: −log10 of the molar value.

molecule | measurementTarget | pKi
C[C@@H]1[C@@H](C)C/C=C(\F)[C@H](COCCC2CCOCC2)N2CC[C@H]2CN2C[C@@]3(CCCc4cc(Cl)ccc43)COc3ccc(cc32)C(=O)NS1(=O)=O [Compound 23] | Myeloid Cell Leukemia 1(Mcl-1) (Homo sapiens (Human)) | 9.09
COCC1(COC)/C(F)=C/C[C@H](C)[C@@H](C)S(=O)(=O)NC(=O)c2ccc3c(c2)N(C[C@@H]2CCN21)C[C@@]1(CCCc2cc(Cl)ccc21)CO3 [Compound 37] | Myeloid Cell Leukemia 1(Mcl-1) (Homo sapiens (Human)) | 9.35
C[C@@H]1[C@@H](C)C/C=C(\F)[C@H](CN2CCN3CCOC[C@@H]3C2)N2CC[C@H]2CN2C[C@@]3(CCCc4cc(Cl)ccc43)COc3ccc(cc32)C(=O)NS1(=O)=O [Compound 28] | Myeloid Cell Leukemia 1(Mcl-1) (Homo sapiens (Human)) | 10.05

====

Biological target: Myeloid Cell Leukemia 1(Mcl-1) (Homo sapiens (Human))
Assay: Terbium labeled Mcl-1 HTRF binding assay with Cy5-labeled BIM BH3 peptide
Conditions: first table; [L]=8 nM, Kd=10 nM; before recalibration of the equipment
Parameter: Ki. Scope: all listed entries.

compound | Ki
Cc1nc(COC[C@H]2/C(F)=C/C[C@H](C)[C@@H](C)S(=O)(=O)NC(=O)c3ccc4c(c3)N(C[C@@H]3CCN32)C[C@@]2(CCCc3cc(Cl)ccc32)CO4)no1 [Compound 24] | 0.63 nM
CC(C)COC[C@H]1/C(F)=C/C[C@H](C)[C@@H](C)S(=O)(=O)NC(=O)c2ccc3c(c2)N(C[C@@H]2CCN21)C[C@@]1(CCCc2cc(Cl)ccc21)CO3 [Compound 15] | 3.64 nM
C[C@@H]1[C@@H](C)C/C=C(\F)[C@H](COCC2CCC2)N2CC[C@H]2CN2C[C@@]3(CCCc4cc(Cl)ccc43)COc3ccc(cc32)C(=O)NS1(=O)=O [Compound 26] | 4.72 nM
COCCOCCOC[C@H]1/C(F)=C/C[C@H](C)[C@@H](C)S(=O)(=O)NC(=O)c2ccc3c(c2)N(C[C@@H]2CCN21)C[C@@]1(CCCc2cc(Cl)ccc21)CO3 [Compound 14] | 0.34 nM
C[C@@H]1[C@@H](C)C/C=C/C(CO)N2CC[C@H]2CN2C[C@@]3(CCCc4cc(Cl)ccc43)COc3ccc(cc32)C(=O)NS1(=O)=O (single isomer, unassigned) [Compound 10] | 2.65 nM

====

Parameter: pKi. Scope: all listed entries.
Target: Myeloid Cell Leukemia 1(Mcl-1) (Homo sapiens (Human), UniProt Q07820)
Sequence (Q07820 whole entry): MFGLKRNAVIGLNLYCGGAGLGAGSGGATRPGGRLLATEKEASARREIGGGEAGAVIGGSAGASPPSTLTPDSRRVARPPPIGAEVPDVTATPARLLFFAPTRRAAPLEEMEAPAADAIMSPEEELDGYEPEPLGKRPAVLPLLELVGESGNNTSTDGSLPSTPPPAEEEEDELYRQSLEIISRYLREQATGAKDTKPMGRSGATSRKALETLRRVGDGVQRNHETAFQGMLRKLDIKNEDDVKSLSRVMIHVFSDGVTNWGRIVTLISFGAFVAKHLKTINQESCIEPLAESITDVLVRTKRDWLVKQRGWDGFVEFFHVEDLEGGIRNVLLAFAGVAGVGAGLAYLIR
Assay: Terbium labeled Mcl-1 HTRF binding assay with Cy5-labeled BIM BH3 peptide
Details: obtained after recalibration of the equipment; averaged values over several runs
From the text: Terbium labeled Myeloid Cell Leukemia 1(Mcl-1) homogeneous time-resolved fluorescence (HTRF) binding assay utilizing the BIM BH3 peptide (H2N-(C/Cy5Mal) WIAQELRRIGDEFN-OH) as the binding partner for Mcl-1. This assay evaluated inhibition of the BH3 domain: Mcl-1 interaction by measuring the displacement of Cy5-labeled BIM BH3 peptide (H2N—(C/Cy5Mal) WIAQELRRIGDEFN-OH) in the HTRF assay format. […]
pKi: −log10 of the molar value.

lineNotation | pKi
COC[C@H]1/C=C/C[C@@H](C)[C@@H](C)S(=O)(=O)NC(=O)c2ccc3c(c2)N(C[C@@H]2CCN21)C[C@@]1(CCCc2cc(Cl)ccc21)CO3 | 8.50
C[C@@H]1[C@@H](C)C/C=C(\F)[C@H](COCCCN2CCOCC2)N2CC[C@H]2CN2C[C@@]3(CCCc4cc(Cl)ccc43)COc3ccc(cc32)C(=O)NS1(=O)=O | 9.68
C[C@@H]1[C@@H](C)C/C=C(\F)[C@H](COCCCN2CCOCC2)N2CCC[C@H]2CN2C[C@@]3(CCCc4cc(Cl)ccc43)COc3ccc(cc32)C(=O)NS1(=O)=O | 9.68
C[C@@H]1[C@@H](C)C/C=C(\F)[C@H](CF)N2CC[C@H]2CN2C[C@@]3(CCCc4cc(Cl)ccc43)COc3ccc(cc32)C(=O)NS1(=O)=O | 9.07
C[C@@H]1[C@@H](C)C/C=C(\F)[C@H](COc2ccccn2)N2CC[C@@H]2CN2C[C@@]3(CCCc4cc(Cl)ccc43)COc3ccc(cc32)C(=O)NS1(=O)=O | 8.67
